# Assay system: Tubulin polyglutamylase TTLL7 (Mus musculus, UniProt A4Q9F0)
# Sequence (A4Q9F0 whole entry): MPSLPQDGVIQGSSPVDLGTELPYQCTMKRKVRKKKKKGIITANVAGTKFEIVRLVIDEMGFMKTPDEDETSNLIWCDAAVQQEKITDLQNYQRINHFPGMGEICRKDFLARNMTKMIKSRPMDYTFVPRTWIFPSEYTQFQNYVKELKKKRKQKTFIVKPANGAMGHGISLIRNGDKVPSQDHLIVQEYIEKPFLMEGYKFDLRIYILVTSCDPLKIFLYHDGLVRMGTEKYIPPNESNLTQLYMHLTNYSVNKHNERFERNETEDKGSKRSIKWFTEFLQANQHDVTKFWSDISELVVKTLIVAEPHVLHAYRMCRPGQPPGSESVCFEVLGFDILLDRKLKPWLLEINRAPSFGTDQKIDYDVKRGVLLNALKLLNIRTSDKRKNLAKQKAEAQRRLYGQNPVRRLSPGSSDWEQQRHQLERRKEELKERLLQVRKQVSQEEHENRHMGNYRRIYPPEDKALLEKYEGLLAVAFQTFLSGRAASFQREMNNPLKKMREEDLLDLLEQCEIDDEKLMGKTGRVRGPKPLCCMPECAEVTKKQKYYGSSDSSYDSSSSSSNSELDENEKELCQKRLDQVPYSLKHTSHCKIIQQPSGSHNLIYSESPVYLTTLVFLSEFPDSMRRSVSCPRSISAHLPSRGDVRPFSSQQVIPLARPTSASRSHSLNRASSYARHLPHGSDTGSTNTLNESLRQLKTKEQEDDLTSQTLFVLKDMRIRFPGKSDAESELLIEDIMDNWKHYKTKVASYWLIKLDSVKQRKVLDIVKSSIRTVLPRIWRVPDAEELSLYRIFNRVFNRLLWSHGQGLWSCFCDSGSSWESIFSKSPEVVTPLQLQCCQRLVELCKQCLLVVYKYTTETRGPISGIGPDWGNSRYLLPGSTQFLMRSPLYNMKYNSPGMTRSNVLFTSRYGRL
# Test method notes: Inhibition of mouse recombinant N-terminal GST-tagged TTLL7-mediated Ac-DATAEEEGEFEEEAEEEVA glutamylation expressed in Escherichia coli Rosetta2 DE3 after 16 hrs by LC-MS analysis
Measured property: IC50 (µM)
Numbers only, in µM.

Ask | # query: IC50 of entry CC(=O)NC(CCC(=O)O)P(=O)(O)CC(CCC(=O)O)C(=O)O (mixture of isomers)
Reply | 150
